Tested on: Mus musculus
assay-name: Anticonvulsant activity in Swiss albino mouse assessed as protection against subcutaneous pentylenetetrazol-induced seizures at 390 umol/kg, ip administered 30 mins before pentylenetetrazole challenge measured after 30 mins relative to stiripentol
Type: functional
Measured Activity accompanies every entry in the list below.

// lookup Activity for CC(C)(C)C1=NN(C(=O)c2ccc(Cl)cc2)C(c2ccc3c(c2)OCO3)C1 (racemic)
1.26 ratio to stiripentol

Can you share its Activity? I mean this compound: Cc1ccccc1NC(=O)N/N=C(\C=C\c1ccc2c(c1)OCO2)C(C)(C)C
1.48 ratio to stiripentol

Requested field: Activity. Item: Cc1ccc(NC(=O)N/N=C(\C=C\c2ccc3c(c2)OCO3)C(C)(C)C)cc1
0.98 ratio to stiripentol

Give the measured Activity of Cc1ccccc1NC(=O)N1N=C(C(C)(C)C)CC1c1ccc2c(c1)OCO2 (racemic) .
0.95 ratio to stiripentol

Fill blank: measured Activity of the compound Cc1ccc(NC(=O)N2N=C(C(C)(C)C)CC2c2ccc3c(c2)OCO3)cc1 (racemic) is ____.
1.48 ratio to stiripentol

Look up Activity for this compound: CC(C)(C)C1=NN(C(=O)Nc2ccc(F)cc2)C(c2ccc3c(c2)OCO3)C1 (racemic)
1.09 ratio to stiripentol

Which measured Activity value corresponds to CC(C)(C)C(/C=C/c1ccc2c(c1)OCO2)=N/NC(=O)Nc1ccc(F)cc1 ?
1.26 ratio to stiripentol
